# TESTED ON: BRD4(BD1) (Homo sapiens, UniProt O60885)
# ASSAY NOTES: HTRF assay, BRD4(BD1)/histone peptide interaction
# Assay type: binding
# Set-up: made in house
# RUN CONDITIONS: HTRF; triplicates; NA = IC50 > maximal concentration of compound used
PARAMETER MEASURED: log10 IC50 (log10 of the value in µM)
Note the log scale: values are log10 of IC50 expressed in µM.

The cases that follow already have their log10 IC50 on record.
[
  {
    "COMPOUND": "O=C1CCCc2cc(S(=O)(=O)NCc3ccc(C(=O)NCc4cccc(O)c4)cc3)ccc2N1 [Compound 15b]",
    "log10 IC50": 1.66
  },
  {
    "COMPOUND": "CCn1cnc2c1c(=O)[nH]c(=O)n2Cc1ccc(CNS(=O)(=O)c2ccc(OC3CCOCC3)cc2)cc1 [Compound 43b]",
    "log10 IC50": -1.02
  },
  {
    "COMPOUND": "O=C1CCCc2cc(S(=O)(=O)NCC3CCC(C(=O)NCCc4cccs4)CC3)ccc2N1 (single isomer, unassigned) [Compound 5b]",
    "log10 IC50": 0.58
  },
  {
    "COMPOUND": "CCn1cnc2c1c(=O)[nH]c(=O)n2Cc1ccc(CNS(=O)(=O)c2ccc3scnc3c2)cc1 [Compound 25c]",
    "log10 IC50": 0.20
  },
  {
    "COMPOUND": "CCn1cnc2c1c(=O)[nH]c(=O)n2Cc1ccc(CNS(=O)(=O)c2ccc(-c3cc(C)n[nH]3)s2)cc1 [Compound 25a]",
    "log10 IC50": -0.55
  }
]

Looking for the measured log10 IC50 of CCn1cnc2c1c(=O)[nH]c(=O)n2Cc1ccc(CNC(=O)[C@@H]2C[C@@H](c3ccccc3)CN2)cc1 [Compound 40c] , can you help? 1.11

Looking for the measured log10 IC50 of CCn1cnc2c1c(=O)[nH]c(=O)n2Cc1ccc(CNS(=O)(=O)c2cccc(NC(C)=O)c2)cc1 [Compound 31b] , can you help? -0.14

Looking for the measured log10 IC50 of CCn1cnc2c1c(=O)[nH]c(=O)n2Cc1ccc(CNS(=O)(=O)c2ccc(Oc3cncc(C)n3)cc2)cc1 [Compound 42c] , can you help? -0.12

Looking for the measured log10 IC50 of O=C1CCCc2cc(S(=O)(=O)C3CCC(C(=O)NCCc4ccccn4)CC3)ccc2N1 (stereo not drawn) , can you help? 0.98

Looking for the measured log10 IC50 of CCn1cnc2c1c(=O)[nH]c(=O)n2Cc1ccc(CNS(=O)(=O)CC(C)C)cc1 [Compound 21a] , can you help? 0.46

Looking for the measured log10 IC50 of CCn1cnc2c1c(=O)[nH]c(=O)n2Cc1ccc(CNC(=O)C2CCC(CO)CC2)cc1 (stereo not drawn) [Compound 35b] , can you help? 0.85

Looking for the measured log10 IC50 of CCn1cnc2c1c(=O)[nH]c(=O)n2Cc1ccc(CNC(=O)[C@@H]2CCCN(C(=O)OC(C)(C)C)C2)cc1 [Compound 39a] , can you help? 0.83

Looking for the measured log10 IC50 of CCn1cnc2c1c(=O)[nH]c(=O)n2Cc1ccc(CNS(=O)(=O)CC2CCCC2)cc1 [Compound 21c] , can you help? 0.15

Looking for the measured log10 IC50 of O=C1CCCc2cc(S(=O)(=O)NCC3CCC(C(=O)NCCc4ccccn4)CC3)ccc2N1 (stereo not drawn) , can you help? 1.28
